procedureSummary: Apparent permeability from apical to basolateral side in human Caco2 cells
Type: ADME, cell-based
conditionSummary: Caco-2
measurementName: Papp A→B (×10⁻⁶ cm/s)

Papp A→B measured on O=C(O)c1ccc(CNC(=O)c2cc(F)ccc2Oc2ccc(F)cc2)cc1 = 36.3

Papp A→B measured on C[C@H](NC(=O)c1cc(Cl)ccc1Oc1ccc(F)cc1)c1ccc(C(=O)O)cc1 = 32.4

Papp A→B measured on C[C@H](NC(=O)c1cc(Cl)cnc1Oc1ccc(F)cc1)c1ccc(C(=O)O)cc1 = 30.3

----------
procedureSummary: Volume of distribution at steady state in cynomolgus monkey at 1 mg/kg, iv
Format: ADME, organism-based, Macaca fascicularis
conditionSummary: in vivo, read-out: Vdss
measurementName: Vd (L/kg)
Output spec: scalar in L/kg, unitless text.

Vd measured on C[C@H](NC(=O)c1cc(Cl)cnc1Oc1cccc(F)c1)c1ccc(C(=O)O)cc1 = 4.7

----------
tgt: Prostaglandin E2 receptor EP4 subtype (Homo sapiens, UniProt P35408)
Sequence (P35408 whole entry): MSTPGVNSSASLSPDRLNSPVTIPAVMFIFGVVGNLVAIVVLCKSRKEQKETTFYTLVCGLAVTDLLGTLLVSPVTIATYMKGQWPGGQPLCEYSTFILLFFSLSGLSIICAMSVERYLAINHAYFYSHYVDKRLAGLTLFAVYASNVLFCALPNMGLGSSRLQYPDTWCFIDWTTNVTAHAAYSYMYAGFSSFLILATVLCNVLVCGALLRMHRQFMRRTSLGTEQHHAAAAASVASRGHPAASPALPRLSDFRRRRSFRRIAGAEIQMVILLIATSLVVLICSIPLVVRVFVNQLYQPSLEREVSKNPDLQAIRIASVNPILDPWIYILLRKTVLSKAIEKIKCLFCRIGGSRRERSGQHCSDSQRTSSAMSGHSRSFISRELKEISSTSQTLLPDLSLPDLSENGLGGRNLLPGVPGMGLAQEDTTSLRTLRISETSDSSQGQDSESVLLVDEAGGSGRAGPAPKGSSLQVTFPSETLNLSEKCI
procedureSummary: Displacement of [3H]PGE from human EP4 receptor expressed in HEK293 cell membranes
measurementName: IC50 (µM)

Here's what some known entries look like.
IC50 measured on C[C@H](NC(=O)c1cc(Cl)cnc1Oc1cccc(F)c1)c1ccc(C(=O)O)cc1 = 0.0024

IC50 measured on O=C(O)c1ccc(CNC(=O)c2cc(Cl)cnc2Oc2ccc(F)cc2)cc1 = 0.0379

IC50 measured on O=C(O)c1ccc(CNC(=O)c2cc(F)cnc2Oc2ccc(F)cc2)cc1 = 0.104

(I) C[C@H](NC(=O)c1cc(Cl)cnc1Oc1cccc(C#N)c1)c1ccc(C(=O)O)cc1
(II) C[C@H](NC(=O)c1cc(Cl)cnc1Oc1cccc(Cl)c1)c1ccc(C(=O)O)cc1
Query: Could you determine which record has the numerically smaller IC50? Candidates: I and II I would appreciate it if you answered with the label of your choice.
Reply: II
(II: 0.00502 µM, I: 0.0134 µM)

----------
procedureSummary: AUC (0 to infinity) in cynomolgus monkey at 1 mg/kg, iv
Type: ADME, organism-based, Macaca fascicularis
Design: dose 1 mg/kg, route intravenous, time infinity
conditionSummary: in vivo
measurementName: AUC(0-inf) (ng·h/mL)
Output spec: scalar in ng·h/mL, unitless text.

AUC(0-inf) measured on C[C@H](NC(=O)c1cc(Cl)cnc1Oc1cccc(F)c1)c1ccc(C(=O)O)cc1 = 3390

----------
tgt: CYP2C19 (Homo sapiens)
Sequence (P33261 whole entry): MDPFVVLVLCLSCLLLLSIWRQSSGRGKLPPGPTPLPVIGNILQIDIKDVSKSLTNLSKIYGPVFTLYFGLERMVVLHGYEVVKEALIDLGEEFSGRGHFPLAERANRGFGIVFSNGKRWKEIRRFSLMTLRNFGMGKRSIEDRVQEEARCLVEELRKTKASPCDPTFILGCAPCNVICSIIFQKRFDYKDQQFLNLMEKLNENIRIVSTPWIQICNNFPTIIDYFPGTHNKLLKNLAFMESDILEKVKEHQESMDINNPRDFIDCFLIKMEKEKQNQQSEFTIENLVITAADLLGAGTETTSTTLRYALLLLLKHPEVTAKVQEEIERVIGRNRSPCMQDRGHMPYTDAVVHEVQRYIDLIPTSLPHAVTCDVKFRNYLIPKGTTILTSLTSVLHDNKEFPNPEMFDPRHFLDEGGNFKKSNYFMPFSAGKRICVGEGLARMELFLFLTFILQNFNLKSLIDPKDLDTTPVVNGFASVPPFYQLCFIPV
procedureSummary: Inhibition of CYP2C19 (unknown origin) at 1 uM relative to control
Assay type: ADME
measurementName: inhibition at 1 µM

inhibition at 1 µM measured on C[C@H](NC(=O)c1cc(Cl)cnc1Oc1cccc(F)c1)c1ccc(C(=O)O)cc1 = < 5%

----------
procedureSummary: Cmax in Sprague-Dawley rat at 1 mg/kg, po
Type: ADME, organism-based
Design: dose 1 mg/kg, route oral
conditionSummary: in vivo
measurementName: Cmax (ng/mL)
Output spec: scalar in ng/mL, unitless text.

Cmax measured on C[C@H](NC(=O)c1cc(Cl)cnc1Oc1cccc(F)c1)c1ccc(C(=O)O)cc1 = 994

----------
procedureSummary: AUC (0 to infinity) in Sprague-Dawley rat at 1 mg/kg, po
Format: ADME, organism-based
Parameters: dose 1 mg/kg, route oral, time infinity
conditionSummary: in vivo
measurementName: AUC(0-inf) (ng·h/mL)
Output spec: scalar in ng·h/mL, unitless text.

AUC(0-inf) measured on C[C@H](NC(=O)c1cc(Cl)cnc1Oc1cccc(F)c1)c1ccc(C(=O)O)cc1 = 7090

----------
tgt: Prostaglandin E2 receptor EP4 subtype (Homo sapiens)
procedureSummary: Displacement of [3H]PGE from human EP4 receptor expressed in HEK293 cell membranes
measurementName: IC50 (nM)

Entry O=C(O)c1ccc(CNC(=O)c2cc(Cl)ccc2Oc2ccc(F)cc2)cc1 , Prostaglandin E2 receptor EP4 subtype (Homo sapiens) data, IC50 value: 21.6

(a) CC(C)(NC(=O)c1cc(F)cnc1Oc1ccc(F)cc1)c1ccc(C(=O)O)cc1
(b) O=C(O)c1ccc(CNC(=O)c2cc(F)ccc2Oc2ccc(F)cc2)cc1
(c) CCC(NC(=O)c1cc(F)cnc1Oc1ccc(F)cc1)c1ccc(C(=O)O)cc1 (racemic)
Query: Task for the reader: rank each entry by its IC50, from the minimum upward. Answer by naming the labels in the order asked.
Reply: b, c, a

(P) C[C@H](NC(=O)c1cc(Cl)cnc1Oc1ccc(F)cc1)c1ccc(C(=O)O)cc1
(Q) C[C@H](NC(=O)c1cc(F)cnc1Oc1ccc(F)cc1)c1ccc(C(=O)O)cc1
Query: Could you determine which record has the numerically smaller IC50? Candidates: P and Q I would appreciate it if you answered with the label of your choice.
Reply: P

----------
procedureSummary: Volume of distribution at steady state in Sprague-Dawley rat at 1 mg/kg, iv
Type: ADME, organism-based
conditionSummary: in vivo, read-out: Vdss
measurementName: Vd (L/kg)
Output spec: scalar in L/kg, unitless text.

Vd measured on C[C@H](NC(=O)c1cc(Cl)cnc1Oc1cccc(F)c1)c1ccc(C(=O)O)cc1 = 0.593

----------
procedureSummary: Tmax in Beagle dog at 1 mg/kg, po
Format: ADME, organism-based, Canis lupus familiaris
conditionSummary: in vivo
measurementName: Tmax (min)
Output spec: scalar in min, unitless text.

Tmax measured on C[C@H](NC(=O)c1cc(Cl)cnc1Oc1cccc(F)c1)c1ccc(C(=O)O)cc1 = 26.3

----------
tgt: Prostaglandin E2 receptor EP4 subtype (Rattus norvegicus, UniProt P43114)
Sequence (P43114 whole entry): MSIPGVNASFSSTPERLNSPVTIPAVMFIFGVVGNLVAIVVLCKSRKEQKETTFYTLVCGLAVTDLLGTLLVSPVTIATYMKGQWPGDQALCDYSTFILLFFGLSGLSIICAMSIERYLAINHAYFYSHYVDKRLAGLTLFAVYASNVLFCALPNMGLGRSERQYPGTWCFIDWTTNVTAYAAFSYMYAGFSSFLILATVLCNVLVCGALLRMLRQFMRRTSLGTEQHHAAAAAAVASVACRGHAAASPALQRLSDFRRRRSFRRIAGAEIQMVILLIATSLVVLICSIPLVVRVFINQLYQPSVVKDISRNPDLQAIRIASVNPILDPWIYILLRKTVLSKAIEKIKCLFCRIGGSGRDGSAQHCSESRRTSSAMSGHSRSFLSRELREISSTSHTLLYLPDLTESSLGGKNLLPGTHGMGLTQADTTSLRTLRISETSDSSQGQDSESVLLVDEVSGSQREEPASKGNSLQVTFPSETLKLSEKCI
procedureSummary: Antagonist activity at rat recombinant EP4 receptor
pKi: −log10 of the molar value.
measurementName: pKi

(a) C[C@H](NC(=O)c1cc(Cl)cnc1Oc1cccc(F)c1)c1ccc(C(=O)O)cc1
(b) CCc1nc2c(C)nc(C)cc2n1-c1ccc(CCNC(=O)NS(=O)(=O)c2ccc(C)cc2)cc1
Query: Could you determine which record has the numerically smaller pKi? Candidates: a and b I would appreciate it if you answered with the label of your choice.
Reply: b

----------
procedureSummary: Antagonist activity at human DP receptor
measurementName: pKi
Lab note — pKi values are minus log10 of concentrations in M.

pKi measured on CCc1nc2c(C)nc(C)cc2n1-c1ccc(CCNC(=O)NS(=O)(=O)c2ccc(C)cc2)cc1 [GRAPIPRANT] = 5.53

----------
procedureSummary: AUC (0 to infinity) in Sprague-Dawley rat at 1 mg/kg, iv
Assay type: ADME, organism-based
Design: dose 1 mg/kg, route intravenous, time infinity
conditionSummary: in vivo
measurementName: AUC(0-inf) (ng·h/mL)
Output spec: scalar in ng·h/mL, unitless text.

AUC(0-inf) measured on C[C@H](NC(=O)c1cc(Cl)cnc1Oc1cccc(F)c1)c1ccc(C(=O)O)cc1 = 9620

----------
procedureSummary: Half life in human liver microsomes
Assay type: ADME, microsome
Item-by-item account of half-life

Here's what some known entries look like.
half-life measured on O=C(O)c1ccc(CNC(=O)c2cccc(OCc3nc4cc(F)ccc4s3)c2)cc1 = > 2 h

half-life measured on C[C@H](NC(=O)c1cc(Cl)ccc1Oc1cccc(F)c1)c1ccc(C(=O)O)cc1 = > 2 h

Now, please, on to the next compound.
half-life measured on C[C@H](NC(=O)c1cc(Cl)cnc1Oc1cccc(Cl)c1)c1ccc(C(=O)O)cc1 = > 2 h

----------
procedureSummary: Total clearance in Beagle dog at 1 mg/kg, iv
Assay type: ADME, organism-based, Canis lupus familiaris
conditionSummary: in vivo
measurementName: clearance (mL/min/kg)
Output spec: scalar in mL/min/kg, unitless text.

clearance measured on C[C@H](NC(=O)c1cc(Cl)cnc1Oc1cccc(F)c1)c1ccc(C(=O)O)cc1 = 2.3

----------
procedureSummary: Solubility of the compound in pH 5.8 water for injection
Assay type: physicochemical
measurementName: solubility (µg/mL)
Output spec: scalar in µg/mL, unitless text.

solubility measured on C[C@H](NC(=O)c1cc(Cl)cnc1Oc1cccc(F)c1)c1ccc(C(=O)O)cc1 = 4.3

----------
Test system: CYP1A
procedureSummary: Inhibition of CYP1A (unknown origin) at 1 uM relative to control
Assay type: ADME
conditionSummary: human
measurementName: inhibition at 1 µM

Entry C[C@H](NC(=O)c1cc(Cl)cnc1Oc1cccc(F)c1)c1ccc(C(=O)O)cc1 , CYP1A data, inhibition at 1 µM value: < 5%

----------
procedureSummary: Lipophilicity, log D of the compound at pH 7.4
Format: physicochemical
conditionSummary: buffer
measurementName: logD
// return just the number, without any unit appended

logD measured on C[C@H](NC(=O)c1cc(Cl)cnc1Oc1cccc(F)c1)c1ccc(C(=O)O)cc1 = 0.7

----------
procedureSummary: AUC (0 to infinity) in Beagle dog at 1 mg/kg, po
Type: ADME, organism-based, Canis lupus familiaris
Parameters: dose 1 mg/kg, time infinity, route oral
conditionSummary: in vivo
measurementName: AUC(0-inf) (ng·h/mL)
Output spec: scalar in ng·h/mL, unitless text.

AUC(0-inf) measured on C[C@H](NC(=O)c1cc(Cl)cnc1Oc1cccc(F)c1)c1ccc(C(=O)O)cc1 = 6080

Recorded values, source ChEMBL document CHEMBL3994644.
